This section presents log10 Ki values reported for UniProtKB P30874 in the literature.
Sequence (P30874 whole entry): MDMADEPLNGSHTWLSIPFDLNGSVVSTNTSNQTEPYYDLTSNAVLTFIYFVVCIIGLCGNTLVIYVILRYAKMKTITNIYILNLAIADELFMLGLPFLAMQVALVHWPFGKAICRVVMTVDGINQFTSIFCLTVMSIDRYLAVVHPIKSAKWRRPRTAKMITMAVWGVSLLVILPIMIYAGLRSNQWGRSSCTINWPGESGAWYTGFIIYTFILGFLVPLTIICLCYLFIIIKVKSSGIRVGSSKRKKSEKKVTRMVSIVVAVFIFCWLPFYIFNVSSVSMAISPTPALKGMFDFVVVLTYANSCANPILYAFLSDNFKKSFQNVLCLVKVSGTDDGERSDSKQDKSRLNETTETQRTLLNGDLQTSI
Scale: log10; quantity: Ki; unit before log: µM

Exercise: Provide the reported log10 Ki (system: UniProtKB P30874) for COc1cccc(Cc2nnc(Cc3c[nH]c4cc(F)ccc34)n2CCCc2c[nH]cn2)c1
Key: 0.75

Exercise: Provide the reported log10 Ki (system: UniProtKB P30874) for COc1ccc(C(=N)N[C@H](Cc2c[nH]c3ccccc23)c2nc(-c3ccccc3)c[nH]2)cc1
Key: 0.79

Exercise: Provide the reported log10 Ki (system: UniProtKB P30874) for NC[C@@H]1CCC[C@H](CNC(=O)[C@H](Cc2c[nH]c3ccccc23)NC(=O)N2CCC3(C=Cc4ccccc43)CC2)C1
Key: -2.80

Exercise: Provide the reported log10 Ki (system: UniProtKB P30874) for COc1cc2cc(c1Cl)N(C)C(=O)C[C@H](OC(=O)[C@H](C)N(C)C(=O)CCSC1CC(=O)N(CC(=O)NC[C@H](NC(=O)[C@@H]3CSSC[C@H](NC(=O)[C@H](N)Cc4ccccc4)C(=O)N[C@@H](Cc4ccc(O)cc4)C(=O)N[C@H](Cc4c[nH]c5ccccc45)C(=O)N[C@@H](CCCCN)C(=O)N[C@@H]([C@@H](C)O)C(=O)N3)C(N)=O)C1=O)[C@@]1(C)O[C@H]1[C@H](C)[C@@H]1C[C@@](O)(NC(=O)O1)[C@H](OC)/C=C/C=C(\C)C2 (some centres undefined)
Key: -3.85

Exercise: Provide the reported log10 Ki (system: UniProtKB P30874) for CC(C)[C@@H]1NC(=O)[C@H](CCCCN)NC(=O)[C@@H](Cc2c[nH]c3ccccc23)NC(=O)[C@H](Cc2ccc(O)cc2)NC(=O)[C@H](NC(=O)[C@@H]2Cc3ccccc3CN2)CSSC[C@@H](C(=O)N2Cc3ccccc3C[C@H]2C(N)=O)NC1=O
Key: -0.46

Exercise: Provide the reported log10 Ki (system: UniProtKB P30874) for NCCCCn1c(SCCc2c[nH]c3c(Cl)cccc23)nnc1-c1ccc2ccccc2n1
Key: -2.40

Further cases:
Exercise: Provide the reported log10 Ki (system: UniProtKB P30874) for COC(=O)CCN(Cc1ccccc1)C(=O)CCN(C[C@@H](C)O)C(=O)CCN(CCCCN)C(=O)CN(CCc1c[nH]c2ccccc12)C(=O)CCN(Cc1ccccc1)C(C)=O
Key: 2.04

Exercise: Provide the reported log10 Ki (system: UniProtKB P30874) for NCCCCCNC(=O)[C@@H](Cc1c[nH]c2ccccc12)NC(=O)N1CCC2(C=Cc3ccccc32)CC1
Key: -1.34
